System: differentiated 3T3-L1 mouse adipocyte cells
Test: Adipocyte glucose consumption in differentiated 3T3-L1 mouse adipocyte cells (loss of glucose from medium, colorimetric)
Type: cell-based
Settings: compound 10 μM, 22 to 24 hours, differentiated 3T3-L1 adipocytes, compound/DMSO, read-out: Glucose consumption (fold change) Mean
ASSAY ENDPOINT: fold induction at 10 µM
Number only, please.

These solved cases illustrate the format of a correct answer.
Prompt: fold induction at 10 µM of CCCCC1CCc2c(c3cccc(C(=O)O)c3n2Cc2cccc(C(N)=O)c2)C1 (stereo not drawn) on differentiated 3T3-L1 mouse adipocyte cells?
Completion: 1.09

Prompt: fold induction at 10 µM of CCCCC1CCCCc2c1n(Cc1cccc(C(N)=O)c1)c1c(C(=O)O)cccc21 (stereo not drawn) on differentiated 3T3-L1 mouse adipocyte cells?
Completion: 1.03

Prompt: fold induction at 10 µM of CCCCC1CCc2c1n(Cc1cccc(C#N)c1)c1c(C(=O)O)cccc21 (stereo not drawn) on differentiated 3T3-L1 mouse adipocyte cells?
Completion: 1.21

New cases:
Prompt: fold induction at 10 µM of CCC1CCc2c(c3cccc(C(=O)O)c3n2Cc2cccc(C(N)=O)c2)C1 (stereo not drawn) on differentiated 3T3-L1 mouse adipocyte cells?
Completion: 1.1

Prompt: fold induction at 10 µM of CCCCC1CCCc2c(n(Cc3ccccc3C#N)c3c(C(=O)O)cccc23)C1 (stereo not drawn) on differentiated 3T3-L1 mouse adipocyte cells?
Completion: 1.1

Prompt: fold induction at 10 µM of CCCCCCC1CCc2c(n(Cc3cccc(C#N)c3)c3c(C(=O)O)cccc23)C1 (stereo not drawn) on differentiated 3T3-L1 mouse adipocyte cells?
Completion: 1.16

Prompt: fold induction at 10 µM of CCCCCCC1CCCc2c(n(Cc3ccccc3C#N)c3c(C(=O)O)cccc23)C1 (stereo not drawn) on differentiated 3T3-L1 mouse adipocyte cells?
Completion: 0.91

Prompt: fold induction at 10 µM of CCCCCCC1CCCc2c(n(Cc3csc(C#N)c3)c3c(C(=O)O)cccc23)C1 (stereo not drawn) on differentiated 3T3-L1 mouse adipocyte cells?
Completion: 1.2

Prompt: fold induction at 10 µM of CCCCCCC1CCCc2c(n(Cc3ccccc3F)c3c(C(=O)O)cccc23)C1 (stereo not drawn) on differentiated 3T3-L1 mouse adipocyte cells?
Completion: 1.17
